Data credit: ChEMBL document CHEMBL3867486

Some compounds, each annotated with its measured Vd.
Assay: Volume of distribution in rat at 2 mg/kg, iv or 5 mg/kg, po
Type: ADME, organism-based
Conditions: in vivo

query_smiles | measure_unit | Vd
COc1ccc2nc(C(F)(F)F)c3c(c2c1)CC[C@]1(C[C@H]2C(=O)N[C@]4(C(=O)NS(=O)(=O)C5(C)CC5)C[C@H]4/C=C\CCCCC[C@H](NC(=O)OCC(C)C)C(=O)N2C1)O3.[K+] | L/kg | 0.3
C=C[C@@H]1C[C@]1(NC(=O)[C@@H]1C[C@]23CCc4c(c(nc5ccc(OC)cc45)CCCCC[C@@H]4CCC[C@H]4OC(=O)N[C@@H](C(C)(C)C)C(=O)N1C2)O3)C(=O)NS(=O)(=O)C1CC1.[K+] | L/kg | 5
